Biological target: Tubulin
Test: Inhibition of tubulin polymerization in human KYSE-450 cells measured by EBI competition assay relative to colchicine
observation.type: pIC50
FYI, pIC50 means -log10 of a concentration in mol per litre.

Note down pIC50 recorded for `COc1cc(C(=O)N2CCc3cc(Br)ccc32)cc(OC)c1OC`
5.47

---

Tested on: ECa-109 cell line
Experiment: Antiproliferative activity against human Eca-109 cells assessed as inhibition of cell proliferation measured after 48 hrs by CCK8 assay
Assay type: functional, cell-based
Settings: ECa-109, 48 h
observation.type: pIC50
// pIC50 here means minus log10 of the molar concentration (mol/L)

Jot down pIC50 (ECa-109 cell line) of `COc1cc(C(=O)N2CCc3cc(Br)ccc32)cc(OC)c1OC` .
5.65
